Biological target: human JAK3 (a.a. 781-1124) (Homo sapiens)
Construct: JAK3 (a.a. 781-1124); His tag (N); made in house; host or cells: insect cells (baculovirus)
Sequence (P52333 781-1124): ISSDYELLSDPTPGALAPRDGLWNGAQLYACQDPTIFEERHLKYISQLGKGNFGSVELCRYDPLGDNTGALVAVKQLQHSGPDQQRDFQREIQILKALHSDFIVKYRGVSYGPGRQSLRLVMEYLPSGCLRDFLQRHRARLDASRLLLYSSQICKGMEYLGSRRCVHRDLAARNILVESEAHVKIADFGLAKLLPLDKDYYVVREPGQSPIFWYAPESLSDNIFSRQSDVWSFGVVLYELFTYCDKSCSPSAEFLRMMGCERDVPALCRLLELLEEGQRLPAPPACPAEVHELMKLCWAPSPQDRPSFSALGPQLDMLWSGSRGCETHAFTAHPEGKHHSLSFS
Test: In vitro JAK kinase assay (HTRF, phosphorylation of a biotinylated peptide), JAK3
Type: biochemical
Details: Table B1
Structures can show the parent of a compound that is named as a salt.
Rule: measured IC50 below 30 nM gets yes; anything equal to or greater than 30 nM gets no.

These solved cases illustrate the format of a correct answer.
COMPOUND	QUALITATIVE_LABEL
O=C(Nc1ccc2cc1CCc1cccc(c1)Nc1ncc(Cl)c(n1)N2)Nc1cccc2c1CCCC2 [Example B109, trifluoroacetate]	no
COc1cccc(S(=O)(=O)Nc2ccc3cc2CCc2cccc(c2)Nc2ncc(Cl)c(n2)N3)c1 [Example B157, trifluoroacetate]	yes
Nc1cc2cc(c1)Nc1nc(ncc1Cl)Nc1cccc(c1)CC2 [Example B21, bis(trifluoroacetate)]	yes
NS(=O)(=O)c1cc2cc(c1)Nc1nc(ncc1Br)Nc1cccc(c1)CC2 [Example B18, trifluoroacetate]	no
O=C(Nc1cccc(C(F)(F)F)c1)Nc1ccc2cc1CCc1cccc(c1)Nc1ncc(Cl)c(n1)N2 [Example B112, trifluoroacetate]	no

Strictly below 30 nM in IC50? CN(Cc1ccc2cc1CCc1cncc(c1)Nc1ncc(Cl)c(n1)N2)CC1CCN(S(=O)(=O)c2ccccc2)CC1 [Example B341, tris(trifluoroacetate)]
no

Does the reported IC50 of COc1ccc(NC(=O)Nc2ccc3cc2CCc2cccc(c2)Nc2ncc(Cl)c(n2)N3)cc1 [Example B101, trifluoroacetate] stay below 30 nM?
yes

----------
Biological target: Recombinant Human Anaplastic Lymphoma Kinase (Homo sapiens)
Construct: purchased Invitrogen, Carlsbad, Calif
Sequence (Q9UM73 19-1620): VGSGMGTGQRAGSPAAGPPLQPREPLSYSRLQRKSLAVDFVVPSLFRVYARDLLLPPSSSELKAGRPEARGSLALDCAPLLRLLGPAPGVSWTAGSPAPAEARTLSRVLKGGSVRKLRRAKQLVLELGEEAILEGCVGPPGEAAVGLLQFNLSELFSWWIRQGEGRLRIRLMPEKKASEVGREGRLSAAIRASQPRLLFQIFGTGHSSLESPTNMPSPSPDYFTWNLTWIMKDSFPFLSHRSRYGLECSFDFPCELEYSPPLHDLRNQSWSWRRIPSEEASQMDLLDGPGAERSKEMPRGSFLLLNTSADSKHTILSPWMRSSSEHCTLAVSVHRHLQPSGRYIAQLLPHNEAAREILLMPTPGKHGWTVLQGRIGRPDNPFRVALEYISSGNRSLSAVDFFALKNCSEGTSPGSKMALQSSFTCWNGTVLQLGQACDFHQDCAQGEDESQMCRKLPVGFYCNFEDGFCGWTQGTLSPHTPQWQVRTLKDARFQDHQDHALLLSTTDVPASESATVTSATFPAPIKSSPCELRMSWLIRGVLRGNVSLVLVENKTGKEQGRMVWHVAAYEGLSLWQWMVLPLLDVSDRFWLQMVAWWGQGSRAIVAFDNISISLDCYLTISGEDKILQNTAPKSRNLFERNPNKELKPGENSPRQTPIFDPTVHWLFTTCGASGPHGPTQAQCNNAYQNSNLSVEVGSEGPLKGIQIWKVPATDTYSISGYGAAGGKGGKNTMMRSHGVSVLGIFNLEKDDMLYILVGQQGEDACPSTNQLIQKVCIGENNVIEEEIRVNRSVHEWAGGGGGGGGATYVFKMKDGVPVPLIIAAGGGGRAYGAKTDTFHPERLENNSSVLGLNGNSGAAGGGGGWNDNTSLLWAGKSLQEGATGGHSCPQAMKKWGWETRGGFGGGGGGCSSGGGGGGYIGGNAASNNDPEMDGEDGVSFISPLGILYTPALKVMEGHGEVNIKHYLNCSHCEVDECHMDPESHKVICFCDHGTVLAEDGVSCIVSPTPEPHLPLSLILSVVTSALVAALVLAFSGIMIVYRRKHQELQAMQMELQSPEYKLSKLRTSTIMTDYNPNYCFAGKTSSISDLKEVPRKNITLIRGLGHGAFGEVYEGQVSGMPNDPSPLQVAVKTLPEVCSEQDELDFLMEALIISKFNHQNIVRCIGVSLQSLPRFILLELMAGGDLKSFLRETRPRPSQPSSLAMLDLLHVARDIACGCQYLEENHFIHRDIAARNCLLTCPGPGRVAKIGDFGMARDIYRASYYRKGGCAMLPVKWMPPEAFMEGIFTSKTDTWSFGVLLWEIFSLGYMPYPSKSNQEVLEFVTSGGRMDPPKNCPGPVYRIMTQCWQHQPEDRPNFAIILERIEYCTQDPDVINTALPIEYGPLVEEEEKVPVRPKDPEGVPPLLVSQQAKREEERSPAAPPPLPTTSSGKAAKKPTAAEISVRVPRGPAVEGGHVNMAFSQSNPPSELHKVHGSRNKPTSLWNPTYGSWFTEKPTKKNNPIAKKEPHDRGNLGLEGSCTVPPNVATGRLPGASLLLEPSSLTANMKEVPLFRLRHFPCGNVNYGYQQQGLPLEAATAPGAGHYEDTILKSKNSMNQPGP
Assay: ALK HTRF kinase assay
Format: biochemical
Conditions: 90 μM ATP
Counter-ions that a name gives are not always drawn.
PARAMETER: IC50 (µM)
Your answer is read as µM, so omit the unit and give the number.

The value of IC50 measured for the molecule Clc1cnc2nc1Nc1cccc(c1)CCCc1cccc(c1)N2 [Example A4] turned out to be 0.925

Reported IC50 of Cc1cc(N2CCOCC2)c2cc1Nc1ncc(Cl)c(n1)Nc1cccc(c1)CC2 [Example A6, trifluoroacetate] : 0.497

Given item O=C1CCc2cccc(c2)Nc2nc(ncc2Cl)Nc2cccc1c2 [Example A5, trifluoroacetate] , the value recorded as its IC50 is 6.18

Noted for Cc1ccc2cc1Nc1ncc(Cl)c(n1)Nc1cccc(c1)CC2 [Example A7, trifluoroacetate] : its IC50 reads 0.523

The recorded IC50 for Clc1cnc2nc1Nc1cccc(c1)/C=C\c1cccc(c1)N2 [Example A1, trifluoroacetate] is 0.415

----------
Listing: IC50 of selected compounds
Biological target: TYK2 (Homo sapiens, UniProt P29597)
Sequence (P29597 whole entry): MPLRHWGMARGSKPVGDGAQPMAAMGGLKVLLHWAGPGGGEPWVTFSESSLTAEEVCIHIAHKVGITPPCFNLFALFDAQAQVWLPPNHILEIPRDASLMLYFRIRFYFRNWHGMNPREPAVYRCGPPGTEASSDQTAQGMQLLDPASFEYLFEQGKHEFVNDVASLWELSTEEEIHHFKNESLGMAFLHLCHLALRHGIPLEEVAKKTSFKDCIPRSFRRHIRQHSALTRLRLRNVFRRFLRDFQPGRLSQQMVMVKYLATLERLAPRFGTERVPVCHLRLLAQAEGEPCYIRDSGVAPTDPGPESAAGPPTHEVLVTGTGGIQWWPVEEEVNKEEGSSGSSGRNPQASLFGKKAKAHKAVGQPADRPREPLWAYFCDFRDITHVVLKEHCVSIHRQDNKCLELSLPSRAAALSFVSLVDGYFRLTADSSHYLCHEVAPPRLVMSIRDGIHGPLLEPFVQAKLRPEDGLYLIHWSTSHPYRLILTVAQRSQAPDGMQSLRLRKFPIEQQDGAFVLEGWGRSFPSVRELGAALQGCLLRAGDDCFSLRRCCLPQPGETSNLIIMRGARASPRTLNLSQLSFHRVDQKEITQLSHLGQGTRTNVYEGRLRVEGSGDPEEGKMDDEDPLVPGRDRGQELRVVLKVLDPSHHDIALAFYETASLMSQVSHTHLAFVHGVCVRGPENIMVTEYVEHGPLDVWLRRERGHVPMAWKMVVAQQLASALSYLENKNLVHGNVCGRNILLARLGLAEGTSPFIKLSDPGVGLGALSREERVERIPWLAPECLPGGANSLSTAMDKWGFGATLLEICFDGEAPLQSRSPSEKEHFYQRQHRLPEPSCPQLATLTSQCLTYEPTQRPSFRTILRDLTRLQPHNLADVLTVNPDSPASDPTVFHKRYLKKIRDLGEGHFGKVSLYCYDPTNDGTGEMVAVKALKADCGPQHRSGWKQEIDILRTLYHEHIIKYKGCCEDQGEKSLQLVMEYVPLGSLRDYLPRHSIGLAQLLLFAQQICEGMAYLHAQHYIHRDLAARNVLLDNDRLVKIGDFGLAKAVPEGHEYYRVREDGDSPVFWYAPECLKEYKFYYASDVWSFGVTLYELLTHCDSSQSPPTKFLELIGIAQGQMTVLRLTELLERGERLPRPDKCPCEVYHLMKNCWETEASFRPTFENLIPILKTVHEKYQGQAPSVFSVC
Assay: TYK2 kinase inhibition (Table A1)
Assay type: biochemical
Conditions: Table D1
Field format: number, assumed nM, no unit text.

COMPOUND	PARAMETER	DATA_VALUE
Clc1cnc2nc1Nc1ccc(NCCC3CCNCC3)c(c1)CCc1cncc(c1)N2 [Example D216, (trifluoroacetate)]	IC50	300

Kindly review the next compound as well.
So for Clc1cnc2nc1Nc1cccc(c1)CCNc1cccc(c1)N2 [Example D78, bis(trifluoroacetate)] , the logged IC50 turned out to be 19

----------
Target: Recombinant Human Anaplastic Lymphoma Kinase (Homo sapiens)
Construct: purchased Invitrogen, Carlsbad, Calif
Assay: ALK HTRF kinase assay
Type: biochemical
Conditions: compound at a concentration of 500 nM or 1 mM (not specified); cells shown as percentage
Structures can show the parent of a compound that is named as a salt.
PARAMETER: ALK % of inhibition at a concentration of 500 nM or 1 mM (%)
Give the quantity in %, number only.

Here are 4 molecules together with their reported answers.
MOLECULE	TARGET_OR_SYSTEM	DATA_VALUE
Cc1oncc1C(=O)N1CC[C@H](NC(=O)Nc2ccc3cc2CCc2cncc(c2)Nc2ncc(Cl)c(n2)N3)C1 [Example B266, bis(trifluoroacetate)]	Recombinant Human Anaplastic Lymphoma Kinase (Homo sapiens)	22
O=C(Nc1ccccn1)Nc1ccc2cc1CCc1cccc(c1)Nc1ncc(Cl)c(n1)N2 [Example B253, bis(trifluoroacetate)]	Recombinant Human Anaplastic Lymphoma Kinase (Homo sapiens)	4.9
O=S(=O)(Nc1ccc2cc1CCc1cccc(c1)Nc1ncc(Cl)c(n1)N2)c1cccc(C(F)(F)F)c1 [Example B163, trifluoroacetate]	Recombinant Human Anaplastic Lymphoma Kinase (Homo sapiens)	80
CC(CO)NC(=O)Nc1ccc2cc1CCc1cccc(c1)Nc1ncc(Cl)c(n1)N2 (stereo not shown) [Example B242, trifluoroacetate]	Recombinant Human Anaplastic Lymphoma Kinase (Homo sapiens)	16

Switching to the query record.
Entry Cc1ccc(Cl)cc1NC(=O)Nc1ccc2cc1CCc1cccc(c1)Nc1ncc(Cl)c(n1)N2 [Example B123, trifluoroacetate] : ALK % of inhibition at a concentration of 500 nM or 1 mM on Recombinant Human Anaplastic Lymphoma Kinase (Homo sapiens) = 16
